test.system: human vasopressin V1a receptor (Homo sapiens)
Sequence (P37288 whole entry): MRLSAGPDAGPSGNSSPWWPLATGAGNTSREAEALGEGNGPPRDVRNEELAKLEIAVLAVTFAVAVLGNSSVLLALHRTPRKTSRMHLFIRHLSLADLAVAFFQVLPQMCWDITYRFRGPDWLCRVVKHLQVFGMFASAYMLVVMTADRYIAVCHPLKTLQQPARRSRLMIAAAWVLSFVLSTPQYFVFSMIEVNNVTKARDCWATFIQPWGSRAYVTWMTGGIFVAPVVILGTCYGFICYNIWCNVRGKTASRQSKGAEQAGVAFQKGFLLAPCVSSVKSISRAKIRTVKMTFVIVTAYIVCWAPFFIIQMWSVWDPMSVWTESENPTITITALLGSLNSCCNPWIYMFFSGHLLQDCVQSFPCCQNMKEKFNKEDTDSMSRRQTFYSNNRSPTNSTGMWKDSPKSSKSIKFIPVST
procedure.text: Functional assay on human vasopressin V1a receptor expressing cell line (intracellular Ca2+ fluorescence)
Assay type: cell-based
assay.context: 1321N1 cells, (Arg8)-vasopressin at EC80; read-out: IC50 (nM) on hV1a cell line
property.label: IC50 (nM)

# example entries with known answers
compound | units.of.measure | IC50
O=C(OC1Cc2cc(Cl)ccc2-n2c(nnc2[C@H]2CC[C@H](Oc3ccccn3)CC2)C1)C1CCC(F)(F)CC1 (stereo partly drawn) | nM | 34
Clc1ccc2c(c1)CC(NC1CCOCC1)Cc1nnc([C@H]3CC[C@H](Oc4ccccn4)CC3)n1-2 (stereo partly drawn) | nM | 5.4
COC1Cc2cc(Cl)ccc2-n2c(nnc2[C@H]2CC[C@H](N3CCOCC3)CC2)C1 (stereo partly drawn) | nM | 6.1
Clc1ccc2c(c1)C[C@H](N1CCCCC1)Cc1nnc([C@H]3CC[C@H](Oc4ccccn4)CC3)n1-2 | nM | 17

(I) OC1Cc2cc(Br)ccc2-n2c(nnc2[C@H]2CC[C@H](C(F)(F)F)CC2)C1 (stereo partly drawn)
(II) CCC[C@]1(OCC)CC[C@H](c2nnc3n2-c2ccc(Cl)cc2CC2(C3)OCCO2)CC1
(III) CCO[C@]1(CC)CC[C@@H](c2nnc3n2-c2ccc(Cl)cc2CC2(C3)OCCO2)CC1
(IV) NC1Cc2cc(Br)ccc2-n2c(nnc2[C@H]2CC[C@H](C(F)(F)F)CC2)C1 (stereo partly drawn)
(V) Clc1ccc2c(c1)CC1(Cc3nnc(C4CCN(Cc5ccccn5)C4)n3-2)OCCO1 (stereo not drawn)
Problem: Form: Sort by [IC50] Order [ ascending ] Provide your answer as the labels ordered per the instruction.
Result: III, V, II, I, IV
(III: 2.1 nM, V: 5.6 nM, II: 8.2 nM, I: 16 nM, IV: 870 nM)
